experimental.system: T1, PNGase PUB domain (aa 11–109) (UniProt Q96IV0 11-109)
T1 construct: PNGase (peptide:N-glycanase), PUB domain, residues 11-109
T1 sequence (looked up): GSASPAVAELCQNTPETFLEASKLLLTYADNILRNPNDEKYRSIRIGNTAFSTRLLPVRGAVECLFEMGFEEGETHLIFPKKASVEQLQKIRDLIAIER
test.details: fluorescence polarisation; serially diluted PUB domains and HOIP variants mixed with an equal volume of 100 nM FITC-Ahx-labeled peptide; one-site binding model; triplicate
condition.notes: both partners purified
pKd: −log10 of the molar value. No end group written: not given here. *: point of attachment. FITC = O=C1OC2(c3ccc(O)cc3Oc3cc(O)ccc32)c2ccc(NC(=S)*)cc21; Ahx = NCCCCCC(=O)O
experimental.readout: pKd

INSERT INTO measurements (binder, measurement) VALUES
  ('{FITC-Ahx}-TEDNDDDLYG (peptide, UniProt P55072 797-806, looked up, p97 (VCP), C-terminal residues 797-806; also called p97 peptide; fluorescent p97 PIM peptide) [FITC-Ahx-labeled p97 PIM peptide (aa 797–806)]', 5.52);
